Data origin: paper PMC5540273

test system: TGFBR2; settings: concentration: 1 μM, replicates: in singlicate; n = 1;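 also: KINOMEscan kinase panel screen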
measure: %Inh (%)
# value in %; strip the unit string

Completed entries (count: 5):
COC(=O)Nc1nc2ccc(Oc3ccc(NC(=O)Nc4cc(C(F)(F)F)ccc4F)cc3)cc2[nH]1.Cl = 7
Cl.Cl.NCC(NC(=O)c1cc(-c2cccnc2)c(-c2ccnc3[nH]ccc23)s1)c1ccccc1 (centres unmarked) = 27
Cn1cc(-c2cnc(N)c3c(-c4ccc5c(c4)CCN5C(=O)Cc4ccccc4)csc23)cn1 = 4
Cc1ccc(NC(=O)c2ccc(Cl)c(Cl)c2)cc1-c1ccc(C(=O)Nc2ccncc2)cc1 = 0
CCn1c(-c2nonc2N)nc2c(-c3ccccc3)ncc(OCCCN)c21.O=C(O)C(F)(F)F.O=C(O)C(F)(F)F = 0

Task: Entry `COc1cccc(C2=C(Nc3cccc(O)c3)C(=O)NC2=O)c1` , system TGFBR2: what %Inh was measured?
Result: 0

Task: Query `c1ccc(Oc2ccc(Nc3ccnc4cc(-c5ccc(CN6CCCCC6)o5)ccc34)cc2)nc1` next
Result: 0

Task: Query `COc1cc(Nc2nccc(N3CCC(NS(=O)(=O)c4ccc(NC(C)=O)cc4)CC3)n2)cc(OC)c1OC` next
Result: 0

----------
test system: PKN1; conditions: concentration: 1 μM, replicates: in singlicate; n = 1
measure: %Inh

Completed entries (count: 5):
COc1ccc(C)c(Nc2ccnc(Nc3ccc(-c4cnc[nH]4)cc3)n2)c1.Cl [GW784041] = 0%
O=C(O)C(F)(F)F.O=c1[nH]ccc2nc(N[C@@H]3CCNC3)nc(Nc3ccc4c(c3)S(=O)(=O)CC4)c12 [GSK2181306] = 0%
Nc1ncc(-c2ccc3nccc(-c4ccncc4)c3c2)cc1S(=O)(=O)N1CCCCC1 [GSK1693850] = 9%
Cc1ccccc1CC(=O)N1CCc2cc(-c3cn(C)c4ncnc(N)c34)ccc21 [GSK2603346] = 15%
N#CC1(c2cccc(C(=O)Nc3cccc(Oc4ccc5nc(NC(=O)C6CC6)sc5n4)c3)c2)CC1 = 0%

Task: Bench note: what %Inh did CN1CCN(Cc2ccc(NC(=O)Nc3ccc(N(C)c4ccnc(Nc5ccc(CS(C)(=O)=O)cc5)n4)cc3)cc2)CC1.Cl [GW827654] show?
Result: 41%

Task: Query CN(c1ccc2c(c1)nc(NCc1ccccc1)n2C)c1ccnc(Nc2ccc(CS(C)(=O)=O)cc2)n1.Cl [GW811603] next
Result: 0%

Task: Query `CCNc1nccc(-c2c(-c3ccc(F)cc3)ncn2C2CCN(C)CC2)n1` next
Result: 0%

----------
tested on: MAP3K4; details: concentration: 1 μM, replicates: in singlicate; n = 1
measure: %Inh (%)
# value in %; strip the unit string

Completed entries (count: 3):
COc1cc(Nc2nccc(N3CCC(NS(=O)(=O)c4ccc(NC(C)=O)cc4)CC3)n2)cc(OC)c1OC = 31
COc1cccc(-c2nc(-c3ccccc3)[nH]c2-c2ccncc2)c1 = 0
Nc1ncc(-c2ccc3nccc(-c4ccncc4)c3c2)cc1S(=O)(=O)N1CCCCC1 = 14

Task: Entry `CC(C)(C)c1ccc(C(=O)Nc2cn3cc(-n4ccnc4)ccc3n2)cc1` , system MAP3K4: what %Inh was measured?
Result: 15

Task: Query `Cl.O=C(Nc1ccc(Oc2ccc3[nH]c(NC(=O)c4ccco4)nc3c2)cc1)Nc1cc(C(F)(F)F)ccc1F` next
Result: 0

Task: Query `Cc1ccc(NC(=O)c2cccc(N3CCCCC3)c2)cc1-c1ccc(C(=O)NCC2CC2)cc1` next
Result: 28
